B1: Glucocorticoid receptor, residues 419 to 494; numbered along this chain, P04150 (parent)
chain: KLCLVCSDEASGCHYGVLTCGSCKVFFKRAVEGQHNYLCAGRNDCIIDKIRRKNCPACRYRKCLQAGMNLEARKTK

Variants of: B1
Experiment: abundance fitness (aPCA) (normalised: wild type 0, dead -1); higher = more abundant; growth selection in yeast, the domain comes from the species named
Conditions: Homo sapiens
Decide using abundance fitness: a value greater than or equal to -0.07 is Met, a smaller one is Not met.

Prompt line: Can G41E be said to have abundance fitness at or above -0.07?
Response line: Met

Prompt line: Can D8R be said to have abundance fitness at or above -0.07?
Response line: Not met

Prompt line: Can V25H be said to have abundance fitness at or above -0.07?
Response line: Met

Prompt line: Can I47F be said to have abundance fitness at or above -0.07?
Response line: Not met

Prompt line: Can N69L be said to have abundance fitness at or above -0.07?
Response line: Not met

Prompt line: Can K28H be said to have abundance fitness at or above -0.07?
Response line: Met
